These data points were gathered from the kinase profiling compilation of Christmann-Franck et al. (2016).

biological target: DYRK3 (human); experiment: radiometric filter-binding kinase assay; conditions: compound 0.1 µM
Decision: residual activity >= 90% yields true (1), all other cases yield false (0).

Could you verify whether the entry CCn1c(-c2nonc2N)nc2cncc(CNC3CCNCC3)c21 shows residual activity of no less than 90%?
true (1)

Decide: is the reported value of residual activity for C=CC(=O)N1CCC[C@@H](n2nc(-c3ccc(Oc4ccccc4)cc3)c3c(N)ncnc32)C1 equal to or greater than 90%?
true (1)

API: above_or_equal(metric=residual activity, cutoff=90%) for item NC(=O)Nc1ccc2c(c1)/C(=C/c1cc(-c3cccnc3)c[nH]1)C(=O)N2
false (0)

Could you tell me if the measured residual activity of Cc1cccc(-c2nn(C(=S)Nc3ccccc3)cc2-c2ccnc3ccccc23)n1 reaches 90% or more?
true (1)

Is residual activity at least 90%? Consider O=C(Nc1nc2cc(C(F)(F)F)cc(NC3CC3)n2n1)c1cccnc1
true (1)

Is residual activity for NC(=O)c1cc(-c2ccnc(NC3CCCCC3)c2)nc(N2CCNCC2)c1 at or above 90%?
false (0)

Is the recorded value of residual activity equal to or greater than 90% for this molecule? Cn1c(=O)c2c(ncn2C)n(C)c1=O
true (1)

Is it the case that COc1cc(O)c2c(c1)/C=C/C[C@H](O)[C@H](O)C(=O)/C=C\C[C@H](C)OC2=O has residual activity reaching or exceeding 90%?
true (1)

Say whether CN1CCN(CCOc2cc(OC3CCOCC3)c3c(Nc4c(Cl)ccc5c4OCO5)ncnc3c2)CC1 shows residual activity of 90% or more.
true (1)

Reported residual activity reaches at least 90% for CNc1nc(-c2ccc3c(N)n[nH]c3c2)cc(N2C[C@@H](C(=O)NC3CCCCC3)CC[C@H]2C)n1 ?
true (1)

Is it the case that O=C(Nc1ccccc1-c1cn2c(CN3CCNCC3)csc2n1)c1cnc2ccccc2n1 has residual activity reaching or exceeding 90%?
false (0)

State whether the measured residual activity reaches 90%, counting equality as reaching it, for Cc1ccc(-c2ccc3c(ccc4sc5c(c43)NC[C@@H](C)NC5=O)n2)cn1
true (1)

Textbook exercise: given the entry CC1=C(CO)C(=O)O[C@@H]([C@@H](C)[C@H]2CC[C@H]3[C@@H]4C[C@H]5O[C@]56[C@@H](O)C=CC(=O)[C@]6(C)C4CC[C@]23C)C1 (stereo not given in full) , state whether its residual activity is greater than or equal to 90%.
true (1)

# check: residual activity of O=C(O)c1ccc(-c2c[nH]c3ncc(-c4ccccc4)cc23)cc1C1CCCC1 is greater than or equal to 90%
false (0)

Has CCCCCc1ccc(/C=C/[C@H](O)[C@@H](CO)NC)cc1 a recorded residual activity greater than or equal to 90%?
true (1)

Tell me whether residual activity is at least 90% here: CCc1cncnc1N1CCN(Cc2nc3cc(C(F)(F)F)ccc3[nH]2)CC1
true (1)

Confirm if residual activity reported for the molecule c1ccc2c(-c3cnn4cc(-c5ccc(N6CCNCC6)cc5)cnc34)ccnc2c1 is 90% or above.
false (0)
